- Method summary: Human hepatocyte clearance
- Assay type: in vitro ADME
- Cond: hepatocytes, no ABT, read-out: Human Hepatocyte Clearance no ABT Intrinsic Clearance
Measured endpoint: hepatocyte CLint

>  <Test smiles>
COc1ccc(C(=O)N(CC(C)(C)C)c2cccc(C)n2)c(N2CCC(c3cc4ccc([C@@H](CC(=O)O)C5CC5)cc4o3)CC2)c1

>  <Measured endpoint>
hepatocyte CLint

>  <Result>
8.8 µL/min/1e6 cells

$$$$

###

- Method summary: Mouse hepatocyte clearance
- Assay type: in vitro ADME
- Cond: hepatocytes, no ABT, read-out: Mouse Hepatocyte Clearance no ABT Intrinsic Clearance

>  <Molecule>
COc1ccc(C(=O)N(CC(C)(C)C)c2cccc(C)n2)c(N2CCC(c3cc4ccc([C@@H](CC(=O)O)C5CC5)cc4o3)CC2)c1 [compound 1]

>  <Unit label>
µL/min/1e6 cells

>  <hepatocyte CLint>
9.2

$$$$

###

- Method summary: Mouse hepatocyte clearance
- Type: in vitro ADME
- Cond: hepatocytes, no ABT, read-out: Mouse Hepatocyte Clearance no ABT % Recovery

>  <Compound>
COc1ccc(C(=O)N(CC(C)(C)C)c2cccc(C)n2)c(N2CCC(c3cc4ccc([C@@H](CC(=O)O)C5CC5)cc4o3)CC2)c1 [compound 1]

>  <recovery, %>
103

$$$$

###

- Assay target: UniProt Q76JU9
- Sequence (Q76JU9 whole entry): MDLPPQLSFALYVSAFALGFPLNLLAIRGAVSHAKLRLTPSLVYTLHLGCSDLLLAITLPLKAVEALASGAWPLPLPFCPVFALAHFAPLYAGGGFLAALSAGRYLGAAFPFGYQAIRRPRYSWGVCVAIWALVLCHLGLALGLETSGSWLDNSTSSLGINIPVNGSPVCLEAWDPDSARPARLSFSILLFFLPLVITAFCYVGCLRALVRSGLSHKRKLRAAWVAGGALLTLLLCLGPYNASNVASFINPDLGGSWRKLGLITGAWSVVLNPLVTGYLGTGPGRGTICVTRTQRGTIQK
- Method summary: Mouse GPR40 b-arrestin

>  <Test smiles>
COc1ccc(C(=O)N(CC(C)(C)C)c2cccc(C)n2)c(N2CCC(c3cc4ccc([C@@H](CC(=O)O)C5CC5)cc4o3)CC2)c1

>  <EC50 / nM>
1.6

$$$$
>  <Test smiles>
COc1ccc(F)c(-c2ccc(COc3cccc([C@@H](CC(=O)O)C4CC4)c3)cc2C2=CCCC2(C)C)c1

>  <EC50 / nM>
22.7

$$$$
>  <Test smiles>
Cc1cc(OCCCS(C)(=O)=O)cc(C)c1-c1cccc(COc2ccc3c(c2)OC[C@H]3CC(=O)O)c1

>  <EC50 / nM>
8.6

$$$$
>  <Test smiles>
CC#C[C@@H](CC(=O)O)c1ccc(OCc2ccc(CN3CCC4(C=Cc5ccccc54)CC3)cc2)cc1

>  <EC50 / nM>
0.8

$$$$

###

- Method summary: Dog hepatocyte clearance
- Format: in vitro ADME
- Cond: hepatocytes, no ABT, read-out: Dog Hepatocyte Clearance no ABT % Recovery

>  <Test smiles>
COc1ccc(C(=O)N(CC(C)(C)C)c2cccc(C)n2)c(N2CCC(c3cc4ccc([C@@H](CC(=O)O)C5CC5)cc4o3)CC2)c1

>  <Unit label>
%

>  <recovery>
103

$$$$

###

- Assay target: hCDK1 (Homo sapiens, UniProt P06493)
- Sequence (P06493 whole entry): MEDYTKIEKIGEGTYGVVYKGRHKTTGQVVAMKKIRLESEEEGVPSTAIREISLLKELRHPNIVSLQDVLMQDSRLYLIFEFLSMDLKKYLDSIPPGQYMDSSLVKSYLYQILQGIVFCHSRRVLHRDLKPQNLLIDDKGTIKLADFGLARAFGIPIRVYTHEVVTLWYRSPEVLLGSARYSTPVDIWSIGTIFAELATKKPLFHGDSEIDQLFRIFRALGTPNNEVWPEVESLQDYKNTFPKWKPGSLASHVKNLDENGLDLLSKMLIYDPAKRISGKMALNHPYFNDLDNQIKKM
- Sequence (P14635 whole entry partner): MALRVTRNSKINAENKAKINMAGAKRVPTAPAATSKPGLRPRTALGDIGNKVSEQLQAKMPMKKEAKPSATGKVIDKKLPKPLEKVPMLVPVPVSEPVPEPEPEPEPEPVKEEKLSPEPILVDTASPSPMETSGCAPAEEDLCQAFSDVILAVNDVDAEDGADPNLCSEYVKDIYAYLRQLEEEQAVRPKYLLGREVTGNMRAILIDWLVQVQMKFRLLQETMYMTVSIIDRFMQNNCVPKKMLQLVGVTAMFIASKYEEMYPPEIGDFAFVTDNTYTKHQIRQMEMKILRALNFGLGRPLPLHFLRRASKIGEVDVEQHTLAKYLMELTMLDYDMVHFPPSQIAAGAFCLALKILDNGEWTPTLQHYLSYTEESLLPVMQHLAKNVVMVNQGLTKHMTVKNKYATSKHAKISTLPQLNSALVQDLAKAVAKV
pIC50: −log10 of the molar value.

>  <Test smiles>
COc1ccc(C(=O)N(CC(C)(C)C)c2cccc(C)n2)c(N2CCC(c3cc4ccc([C@@H](CC(=O)O)C5CC5)cc4o3)CC2)c1

>  <pIC50>
< 4.70

$$$$

###

- Assay target: human GPR40 (Homo sapiens)
- Construct: HEK293 cells stably overexpressing full length human GPR40; expressed in transfected cells
- Sequence (O14842 whole entry): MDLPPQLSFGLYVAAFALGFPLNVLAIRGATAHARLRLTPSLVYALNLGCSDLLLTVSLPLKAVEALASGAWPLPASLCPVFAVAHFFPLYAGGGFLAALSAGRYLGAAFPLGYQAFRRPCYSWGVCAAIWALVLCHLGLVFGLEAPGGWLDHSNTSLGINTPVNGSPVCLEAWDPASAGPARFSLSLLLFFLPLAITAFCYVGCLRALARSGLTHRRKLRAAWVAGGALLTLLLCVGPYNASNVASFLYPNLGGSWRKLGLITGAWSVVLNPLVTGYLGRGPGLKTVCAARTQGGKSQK
- Method summary: Human GPR40 IP1
- Assay type: cell-based
pEC50: −log10 of the molar value.
Overview of recorded pEC50 for various compounds

>  <Compound>
CC#C[C@@H](CC(=O)O)c1ccc(OCc2ccc(CN3CCC4(C=Cc5ccccc54)CC3)cc2)cc1 [LY2881835]

>  <Assay target>
human GPR40 (Homo sapiens)

>  <Modifier>
=

>  <pEC50>
8.91

$$$$
>  <Compound>
COc1ccc(F)c(-c2ccc(COc3cccc([C@@H](CC(=O)O)C4CC4)c3)cc2C2=CCCC2(C)C)c1 [AM-1638]

>  <Assay target>
human GPR40 (Homo sapiens)

>  <Modifier>
=

>  <pEC50>
9.60

$$$$
>  <Compound>
COc1ccc(C(=O)N(CC(C)(C)C)c2cccc(C)n2)c(N2CCC(c3cc4ccc([C@@H](CC(=O)O)C5CC5)cc4o3)CC2)c1 [compound 1]

>  <Assay target>
human GPR40 (Homo sapiens)

>  <Modifier>
>

>  <pEC50>
10.30

$$$$

###

- Assay target: UniProt:Q5NUL3
- Sequence (Q5NUL3 whole entry): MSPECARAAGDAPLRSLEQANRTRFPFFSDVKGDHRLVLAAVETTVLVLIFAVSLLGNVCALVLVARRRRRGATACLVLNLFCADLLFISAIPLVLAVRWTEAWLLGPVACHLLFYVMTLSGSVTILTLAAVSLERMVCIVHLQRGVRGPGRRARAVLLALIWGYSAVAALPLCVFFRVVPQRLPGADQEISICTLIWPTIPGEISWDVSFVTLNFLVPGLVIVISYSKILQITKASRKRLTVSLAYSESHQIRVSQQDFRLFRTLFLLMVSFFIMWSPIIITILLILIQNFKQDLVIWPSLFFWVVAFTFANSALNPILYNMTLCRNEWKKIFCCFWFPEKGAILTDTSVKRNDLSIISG
- Method summary: Human GPR120 b-arrestin
- Format: cell-based
- Cond: Supplementary Table 1

>  <Molecule>
Cc1cc(OCCCS(C)(=O)=O)cc(C)c1-c1cccc(COc2ccc3c(c2)OC[C@H]3CC(=O)O)c1 [TAK-875]

>  <EC50>
> 100 µM

$$$$
>  <Molecule>
COc1ccc(C(=O)N(CC(C)(C)C)c2cccc(C)n2)c(N2CCC(c3cc4ccc([C@@H](CC(=O)O)C5CC5)cc4o3)CC2)c1 [compound 1]

>  <EC50>
> 100 µM

$$$$
>  <Molecule>
CC#C[C@@H](CC(=O)O)c1ccc(OCc2ccc(CN3CCC4(C=Cc5ccccc54)CC3)cc2)cc1 [LY2881835]

>  <EC50>
> 100 µM

$$$$

###

- Method summary: Rat hepatocyte clearance
- Type: in vitro ADME
- Cond: hepatocytes, no ABT, read-out: Rat Hepatocyte Clearance no ABT % Recovery

>  <Test smiles>
COc1ccc(C(=O)N(CC(C)(C)C)c2cccc(C)n2)c(N2CCC(c3cc4ccc([C@@H](CC(=O)O)C5CC5)cc4o3)CC2)c1

>  <Unit label>
%

>  <recovery>
103

$$$$

###

- Assay target: GPR40 L112F (Homo sapiens, UniProt O14842, L112F)
- Sequence (O14842 whole entry L112F): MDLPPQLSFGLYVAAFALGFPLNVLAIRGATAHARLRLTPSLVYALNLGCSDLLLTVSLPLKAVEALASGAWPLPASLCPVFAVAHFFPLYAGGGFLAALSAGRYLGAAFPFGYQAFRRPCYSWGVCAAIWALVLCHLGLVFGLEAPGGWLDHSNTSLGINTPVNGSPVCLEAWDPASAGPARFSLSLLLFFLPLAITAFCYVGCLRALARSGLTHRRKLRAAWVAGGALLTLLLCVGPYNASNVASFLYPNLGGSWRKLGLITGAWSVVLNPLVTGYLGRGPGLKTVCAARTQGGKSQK
- Method summary: cAMP accumulation assay, L112F mutant
pEC50: −log10 of the molar value.

>  <Compound>
COc1ccc(C(=O)N(CC(C)(C)C)c2cccc(C)n2)c(N2CCC(c3cc4ccc([C@@H](CC(=O)O)C5CC5)cc4o3)CC2)c1 [compound 1]

>  <Assay target>
GPR40 L112F (Homo sapiens, UniProt O14842, L112F)

>  <pEC50>
7.22

$$$$

###

- Assay target: hCDK2 (Homo sapiens, UniProt P24941)
Measured endpoint: IC50

>  <Test smiles>
COc1ccc(C(=O)N(CC(C)(C)C)c2cccc(C)n2)c(N2CCC(c3cc4ccc([C@@H](CC(=O)O)C5CC5)cc4o3)CC2)c1

>  <Measured endpoint>
IC50

>  <Result>
> 20 µM

$$$$

###

- Method summary: Rat hepatocyte clearance
- Format: in vitro ADME
- Cond: hepatocytes, with ABT, read-out: Rat Hepatocyte Clearance ABT Intrinsic Clearance

>  <Test smiles>
COc1ccc(C(=O)N(CC(C)(C)C)c2cccc(C)n2)c(N2CCC(c3cc4ccc([C@@H](CC(=O)O)C5CC5)cc4o3)CC2)c1

>  <hepatocyte CLint>
3 µL/min/1e6 cells

$$$$
